Test system: M14
protocol-description: NCI tumour cell line growth inhibition, 48 h
Active and inactive are the calls of the source. Cut-off read from the data, not from the text of the source: active = GI50 up to about 1.1 µM and inactive = higher.
Respond with a class label; see t = active, f = inactive

> print(dat)
                                   compound  measured.on  class.assignment
1            Cc1cccc(/C=N\NC(=S)N2CCCCC2)n1          M14                 t
2     Oc1ccc(-c2cc(-c3c(O)cc(O)cc3O)on2)cc1          M14                 f
3  CO/N=C(\C(=O)[N-]n1cn[n+](CC(=O)OC(C)(C)C)c1)c1csc(NC(c2ccccc2)(c2ccccc2)c2ccccc2)n1          M14                 f
4  CC1(C)O[C@@H](CC/C=C/CO)[C@H](CC/C=C/CO)O1          M14                 f
5  COC(=O)c1ccc(C)cc1CC1Cc2c(C)cccc2C1=O (stereo not drawn)          M14                 f

How was `Cc1cc(C)c(S(=O)(=O)N(CCCCN)OCCCN)c(C)c1` classified in this test? f

How was `CCOC(=O)C(C(=O)OCC)=C1N[C@H](C(=O)OCC)CS1` classified in this test? f

How was `CCOC(=O)[C@H]1C[C@]23CN(C(=O)OC(C)(C)C)CC[C@H]2CCC2(SCCCS2)[C@@H]3N1C` classified in this test? f

How was OC(c1cc(C(F)(F)F)nc2c(Cl)cc(Cl)cc12)C1CCCCN1 (stereo not drawn) classified in this test? f

How was C[Si](C)(C)CN1C(=O)c2ccccc2C1(O)c1ccccc1 (stereo not drawn) classified in this test? f
